Target: Calcium-dependent protein kinase 1 (Plasmodium falciparum (isolate 3D7))
Test: PfCDPK1 kinase inhibitors, biochemical, TCAMS library (AID 1159585);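 also: inhibitors leave more ATP so luminescence rises with inhibition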
Details: recombinant PfCDPK1, Kinase-Glo ATP depletion luminescence
Entries with a potency or affinity are not part of this list. Activity calls are given as the source filed them. The limit is not given here; nearly all actives have IC50 up to about 0.98 µM.
measure: outcome

[[record]]
compound = "Cc1ccc(NC(=O)c2cccc(CN3CCCN(Cc4cccc(O)c4)CC3)c2)cc1C"
measure = "outcome"
obsvalue = "inactive"

[[record]]
compound = "COc1cc2nc(Nc3ccc4c(c3)OCCO4)nc(N)c2cc1OC"
measure = "outcome"
obsvalue = "inactive"

[[record]]
compound = "CCN(CC)CCn1c(=N)n(CC(=O)c2ccc(-c3ccccc3)cc2)c2ccccc21"
measure = "outcome"
obsvalue = "inactive"

[[record]]
compound = "Cc1ccccc1OCCCON1C(N)=NC(N)=NC1(C)C"
measure = "outcome"
obsvalue = "inactive"

[[record]]
compound = "Cc1nc(N/C=C/c2ccc(O)cc2)cc(N2CCCC2)n1"
measure = "outcome"
obsvalue = "inactive"

[[record]]
compound = "O=C(NCc1ccc(C(=O)NCc2cccc3ccccc23)cc1)c1ccc(O)c(-c2ccc(Cl)c(Cl)c2)c1"
measure = "outcome"
obsvalue = "inactive"

[[record]]
compound = "C=CCOC(=O)N1CCC(CNCc2ccc(-c3cccc(-c4nc5ccc(F)cc5[nH]4)c3)cc2)C1 (centres undefined)"
measure = "outcome"
obsvalue = "inactive"

[[record]]
compound = "O=S(=O)(NCCN1CCCC1)c1ccc(-c2cccc(CNC3Cc4ccccc4C3)c2)s1"
measure = "outcome"
obsvalue = "inactive"

[[record]]
compound = "CC(C)C[C@@H](/C=N/N1CC(=O)NC1=O)NC(=O)[C@H](CC(C)C)NC(=O)c1ccc(OCCN2CCOCC2)cc1"
measure = "outcome"
obsvalue = "inactive"


###

Test: inhibition of 3D7 malaria parasite growth – strain 3D7 (AID 2306);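 also: 0% = DMSO wells and 100% = chloroquine plus artemisinin control wells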
Details: P. falciparum 3D7 erythrocytic growth, LDH absorbance, 72 h; at 2 µM; stronger effect = higher value
Calls of active or inactive are those of the source. No rule for the calls is given here.
Here, each record is paired with measured growth inhibition data.
measure: growth inhibition

[[record]]
compound = "CN1CCN(c2nsc3ccc(-c4ccc(OCCN5CCCC5)cc4)cc23)CC1"
measure = "growth inhibition"
obsvalue = "102% (active)"

[[record]]
compound = "Cc1cc(NC(=O)NCCN2CCC(NS(=O)(=O)c3ccc(C(F)(F)F)cc3)C2)c2ccccc2n1 (centres undefined)"
measure = "growth inhibition"
obsvalue = "96% (active)"

[[record]]
compound = "CO/C(=C\\C=C\\c1cc2cc(Cl)c(Cl)cc2[nH]1)C(=O)NCCCN1CCN(c2cccc(OCC(=O)Nc3ccccc3)c2)CC1"
measure = "growth inhibition"
obsvalue = "100% (active)"

[[record]]
compound = "Ic1cc(Nc2ncnc3ccsc23)ccc1OCc1ccccc1"
measure = "growth inhibition"
obsvalue = "101% (active)"

[[record]]
compound = "COc1ccc(C(=O)CCC(=O)N(Cc2ccc(-c3ccc(CNCCc4ccc(S(C)(=O)=O)cc4)cn3)cc2)C2C[C@@H]3CC[C@H]2C3)cc1F (some centres undefined)"
measure = "growth inhibition"
obsvalue = "97% (active)"

[[record]]
compound = "CC1(C)CCC(C)(C)c2c1ccc(C1CCN(CCCCNC(=O)c3ccc(-c4ccc(Cl)cc4)cc3)CC1)c2O"
measure = "growth inhibition"
obsvalue = "102% (active)"

[[record]]
compound = "C=CCNC(=O)CCCN=C(N)N"
measure = "growth inhibition"
obsvalue = "98% (active)"

[[record]]
compound = "Cc1cccc2[nH]c(-c3cccc(-c4cccc(NC(=O)CC5NC(=O)c6ccccc65)c4)c3)nc12 (centres undefined)"
measure = "growth inhibition"
obsvalue = "92% (active)"

[[record]]
compound = "NOCCCCOc1ccc(Cl)cc1"
measure = "growth inhibition"
obsvalue = "98% (active)"


###

Assay: antimalarial activity against Dd2 strain (AID 2302);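 also: 0% = DMSO untreated growth and 100% = chloroquine plus artemisinin killed control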
Conditions: P. falciparum Dd2 in RBCs, LDH growth readout, 72 h; at 2 µM; stronger effect = higher value
measure: growth inhibition (%)

[[record]]
molecule = "COc1ccc(OC)c2c1CCN(CCN1CCC(C(=O)Nc3ccc(C(=O)Nc4ccc(Cl)cc4)cc3)CC1)C2"
readoutunits = "%"
obsvalue = 100

[[record]]
molecule = "CCC(CC)(Cc1ccccc1)NC(=O)[C@H](Cc1ccc(OC)c(OC)c1)Nc1ccc(C#N)c2ccccc12"
readoutunits = "%"
obsvalue = 69

[[record]]
molecule = "CC(C)Cc1cn(-c2nc(C(=N)N)cs2)c2cc(Cl)ccc12"
readoutunits = "%"
obsvalue = 98

[[record]]
molecule = "CC(C)C[C@@H](/C=N/NC(N)=O)NC(=O)[C@H](CC(C)C)NC(=O)[C@H](CC(C)C)NC(=O)OCc1ccccc1"
readoutunits = "%"
obsvalue = 99

[[record]]
molecule = "Cc1ccccc1C1CCN(C2CCC(NC(=O)/C=C/c3ccc(C#N)cc3)CC2)CC1 (centres undefined)"
readoutunits = "%"
obsvalue = 13

[[record]]
molecule = "O=C(Cc1ccc(NC(=O)c2ccc(O)c(-c3ccc(Cl)c(Cl)c3)c2)cc1)NCCN1CCOCC1"
readoutunits = "%"
obsvalue = 24

[[record]]
molecule = "CNC(=O)c1cnc(Nc2ccc(N3CCN(C)CC3)cc2)nc1Nc1cccc([N+](=O)[O-])c1"
readoutunits = "%"
obsvalue = 100

[[record]]
molecule = "Cc1ccc(F)cc1S(=O)(=O)Nc1ccc(CCN2CCC(N3CCCCC3)CC2)cc1"
readoutunits = "%"
obsvalue = 15

[[record]]
molecule = "Cc1ccccc1C1CCN(C2CCC(NC(=O)c3ccc(-c4cccc(C(F)(F)F)c4)o3)CC2)CC1 (centres undefined)"
readoutunits = "%"
obsvalue = 101


###

Experiment: HepG2 cytotoxicity, primary screen, cytotoxicity control for P. falciparum antimalarial project, cell-based, ATP luminescence (AID 2303);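 also: 0% = DMSO wells and 100% = digitonin-killed cells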
Details: HepG2 viability, 24-48 h, at 10 µM, stronger effect = higher value
measure: inhibition (%)

[[record]]
compound = "CN1CCC(NCc2cccc(-c3cccc(S(=O)(=O)NCc4ccccc4)c3)c2)CC1"
measure = "inhibition"
readoutunits = "%"
obsvalue = 57

[[record]]
compound = "Cc1[nH]c(C)c(-c2ccc(Cl)cc2Cl)c(=O)c1Br"
measure = "inhibition"
readoutunits = "%"
obsvalue = 3

[[record]]
compound = "COc1ccc(-c2ccc(NC(=O)c3cccc(C#N)c3)cc2)cc1CN1CCCC(C(N)=O)C1 (stereo not given)"
measure = "inhibition"
readoutunits = "%"
obsvalue = 12

[[record]]
compound = "CCc1cc2c(Sc3nnc(N)s3)ncnc2s1"
measure = "inhibition"
readoutunits = "%"
obsvalue = -20

[[record]]
compound = "CCN(CC)S(=O)(=O)c1cc(-c2ccc(=O)n(CC(=O)c3ccc(C)cc3)n2)ccc1C"
measure = "inhibition"
readoutunits = "%"
obsvalue = 6

[[record]]
compound = "Cc1cc(NC(=O)c2ccco2)ccc1OC1CCN(Cc2ccc(C#N)cc2)CC1"
measure = "inhibition"
readoutunits = "%"
obsvalue = 2

[[record]]
compound = "COc1ccc(NC(=O)/C=C/c2ccc(Cl)c(C(F)(F)F)c2)cc1OCCN(C(C)C)C(C)C"
measure = "inhibition"
readoutunits = "%"
obsvalue = 18

[[record]]
compound = "O=C(NOCCOc1ccccc1)c1ccccc1"
measure = "inhibition"
readoutunits = "%"
obsvalue = 0

[[record]]
compound = "COCCC[C@H]1C(=O)O[C@H]2CCC[C@@H]21"
measure = "inhibition"
readoutunits = "%"
obsvalue = -9

[[record]]
compound = "CC(C)c1cc2c(ccc3nc(N)nc(N)c32)[nH]1"
measure = "inhibition"
readoutunits = "%"
obsvalue = 49

[[record]]
compound = "CC(C)NCc1ccc(-c2cccc(NC(=O)c3ccc(C#N)cc3)c2)cc1"
measure = "inhibition"
readoutunits = "%"
obsvalue = 8

[[record]]
compound = "CCCOc1ccc(-c2nonc2NC(=O)c2ccccc2OC)cc1OCCC"
measure = "inhibition"
readoutunits = "%"
obsvalue = 23

[[record]]
compound = "O=C(N[C@@H](Cc1ccccc1)[C@H](O)CNCCC(F)(F)F)c1cccc(CCC2CC2)c1"
measure = "inhibition"
readoutunits = "%"
obsvalue = -4

[[record]]
compound = "CCCCCCn1c2c(c(=N)c3c1CCC3)CCCC2"
measure = "inhibition"
readoutunits = "%"
obsvalue = 31

[[record]]
compound = "CN(C)CCOc1ccc(NC(=O)NC(C)(C)c2nc(-c3ccc(Cl)c(O)c3)c(-c3ccncc3)[nH]2)cc1"
measure = "inhibition"
readoutunits = "%"
obsvalue = 22

[[record]]
compound = "Cc1ccc2c(NN=Cc3ccccc3[N+](=O)[O-])cc(C)nc2c1"
measure = "inhibition"
readoutunits = "%"
obsvalue = 13

[[record]]
compound = "COc1ccc2nccc([C@@H](O)CN3CCC(NCc4ccc5c(c4)NC(=O)C(C)S5)CC3)c2c1 (stereo not given in full)"
measure = "inhibition"
readoutunits = "%"
obsvalue = 7

[[record]]
compound = "Cc1ccc(Nc2nccc(NCC(O)c3ccc(C(F)(F)F)cc3)n2)cc1 (stereo not given)"
measure = "inhibition"
readoutunits = "%"
obsvalue = 53

[[record]]
compound = "C=CCn1c(SCc2c(C)noc2C)nc2scc(-c3cccs3)c2c1=O"
measure = "inhibition"
readoutunits = "%"
obsvalue = 13

[[record]]
compound = "COc1cc(C(=O)N2[C@@H](c3nccs3)[C@@H](C(=O)N(OC)C(C)c3ccccc3)C[C@@]2(CC(C)C)C(=O)OC(C)(C)C)ccc1C(C)(C)C (stereo not given in full)"
measure = "inhibition"
readoutunits = "%"
obsvalue = 12

[[record]]
compound = "Cc1cc(N[C@@H](Cc2ccccc2)C(=O)NCc2cccc(F)c2)nc(NCc2ccccc2C)n1"
measure = "inhibition"
readoutunits = "%"
obsvalue = 6

[[record]]
compound = "Cc1cc(NN=Cc2cccc(F)c2)c2cc(F)ccc2n1"
measure = "inhibition"
readoutunits = "%"
obsvalue = 7

[[record]]
compound = "O=C(Nc1ccc(OC2CCN(Cc3ccc(F)cc3)CC2)c(Cl)c1)c1ccsc1"
measure = "inhibition"
readoutunits = "%"
obsvalue = 5

[[record]]
compound = "COc1ccc(C2CC(c3cccs3)=NN2C(=O)c2ccccc2)cc1OC (stereo not given)"
measure = "inhibition"
readoutunits = "%"
obsvalue = 5

[[record]]
compound = "CCc1cc(OC)c(C(=O)NC2CCN(C[C@H](O)c3ccnc4ccc(OC)cc34)CC2)cc1Br"
measure = "inhibition"
readoutunits = "%"
obsvalue = 6

[[record]]
compound = "CCN(CC)C(=O)c1cccc(/C=C/c2ccc(-c3c(C)[nH]c(C)c(Cl)c3=O)cc2)c1"
measure = "inhibition"
readoutunits = "%"
obsvalue = 9

[[record]]
compound = "COc1cc(Nc2nccc(N3CCC(NC(=O)C4COc5ccccc5O4)C3)n2)cc(OC)c1OC (stereo not given)"
measure = "inhibition"
readoutunits = "%"
obsvalue = 5

[[record]]
compound = "O=C1C2C(C(=O)N1c1ccccc1)[C@H]1S[C@@H]2c2c1ccc1ccccc21 (stereo not given in full)"
measure = "inhibition"
readoutunits = "%"
obsvalue = -5

[[record]]
compound = "O=C(NCCN1CCCC1)N1CCCN(c2ncnc3cc(-c4ccc(Cl)cc4)sc23)CC1"
measure = "inhibition"
readoutunits = "%"
obsvalue = 13

[[record]]
compound = "Cc1cc(N[C@@H](Cc2ccccc2)C(=O)NCCc2ccccc2)nc(NCCc2cccs2)n1"
measure = "inhibition"
readoutunits = "%"
obsvalue = 12

[[record]]
compound = "O=C(Nc1ccccc1Br)N[C@@H]1CCN(c2ccnc3ccccc23)C1"
measure = "inhibition"
readoutunits = "%"
obsvalue = 25

[[record]]
compound = "COc1ccc(NC(=O)c2ccc(-c3nc(-c4ccccc4)cs3)cc2)cc1N1CCN(C)CC1"
measure = "inhibition"
readoutunits = "%"
obsvalue = 17

[[record]]
compound = "COc1ccc(C2CCN(C#N)C2)cc1OC1CCCC1 (stereo not given)"
measure = "inhibition"
readoutunits = "%"
obsvalue = 9

[[record]]
compound = "O=C(Nc1cccc(-c2nn3ncccc3c2-c2ccnc(Nc3cccnc3)n2)c1)c1c(F)cccc1F"
measure = "inhibition"
readoutunits = "%"
obsvalue = 5

[[record]]
compound = "COc1ccc2nccc([C@@H](O)CN3CCC(NC(=O)Cn4nc(-c5ccc(C(F)(F)F)cc5)ccc4=O)CC3)c2c1"
measure = "inhibition"
readoutunits = "%"
obsvalue = 12

[[record]]
compound = "COc1cc(N(C)Cc2cnc3nc(N)nc(N)c3n2)cc(OC)c1OC"
measure = "inhibition"
readoutunits = "%"
obsvalue = 32

[[record]]
compound = "COc1ccccc1CN1CCC(NC(=O)c2ccc(-c3cccc(C(F)(F)F)c3)s2)CC1"
measure = "inhibition"
readoutunits = "%"
obsvalue = 83

[[record]]
compound = "Cc1cnc2ccc(NS(=O)(=O)c3sc4ccc(Cl)cc4c3C)cc2c1N1CCNCC1"
measure = "inhibition"
readoutunits = "%"
obsvalue = -9

[[record]]
compound = "FC(F)(F)c1ccc2nc(-c3ccc(-c4cccc(CNCC5CCCO5)c4)s3)[nH]c2c1 (stereo not given)"
measure = "inhibition"
readoutunits = "%"
obsvalue = 37

[[record]]
compound = "COc1ccc(NC(=O)/C=C/c2ccc(-c3ccc(-c4noc(C)n4)cc3)cc2)cc1OCCN(C)C"
measure = "inhibition"
readoutunits = "%"
obsvalue = 14

